target.entity: VEGF165 (vascular endothelial growth factor 165) (Homo sapiens, UniProt P15692-4 P15692-4:27-191)
Sequence (P15692 other isoform, or with tags, fused parts or gaps): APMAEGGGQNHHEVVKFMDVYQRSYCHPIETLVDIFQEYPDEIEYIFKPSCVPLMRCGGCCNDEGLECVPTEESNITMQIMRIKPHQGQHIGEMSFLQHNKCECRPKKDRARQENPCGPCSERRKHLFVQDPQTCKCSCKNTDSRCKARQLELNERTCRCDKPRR
test.description: SPR; VEGF immobilized on CM5; TBS with 5 mM KCl, pH 7.4, 20 C
experimental.conditions: tags: R&D Systems, expressed in Sf21 insect cells; chain copies: 2 (inferred, homodimer); G4 predicted
quantity.kind: pKd
Lab note — pKd values are minus log10 of concentrations in M.

Example cases with answers are listed next.
[
  {
    "binder": "TGTGGGGATGGATGGGCCGGGCTGC (ssDNA) [3R08 (3R#08)]",
    "pKd": 8.82
  },
  {
    "binder": "TGTGGGGGTGGTTGGGCGGGGCTGC (ssDNA) [3R09 (3R#09)]",
    "pKd": 8.62
  },
  {
    "binder": "TGTGGGGGTGGACGGGCCGAGTACG (ssDNA) [3R03 (3R#03)]",
    "pKd": 8.77
  }
]

Shift focus to the following entry.
Which pKd is reported for this binder? TGTGGGGGAGGACGGGCGGGGATGC (ssDNA) [3R#01]
8.06
